Target under test: HLA-B*45:01
Test description: IEDB peptide-MHC binding, purified MHC/competitive/radioactivity; filed as Kd, often an IC50 or EC50 that approximates it; bounds were set here for any values at or beyond the usual limits of such assays
Run conditions: source organism: Mammarenavirus guanaritoense
pKd: −log10 of the molar value.
Measurement kind: pKd

QUERY: Query: pKd; subject: `YEERLNEQLL`
RESULT: ≤ 4.15

----------
Target under test: HLA-A*01:01
Test description: IEDB peptide-MHC binding, purified MHC/competitive/fluorescence; filed as Kd, often an IC50 or EC50 that approximates it; bounds were set here for any values at or beyond the usual limits of such assays
Run conditions: source organism: Escherichia coli O139:H28 str. E24377A
Measurement kind: Kd (nM)
Use nM as the unit, but write only the number.

QUERY: Consider the sequence shown here: `LANWCLLNY` What is its recorded Kd?
RESULT: 1670

----------
Target under test: HLA-B*15:01
Test description: IEDB peptide-MHC binding, purified MHC/competitive/fluorescence; filed as Kd, often an IC50 or EC50 that approximates it; bounds were set here for any values at or beyond the usual limits of such assays
Run conditions: source organism: Burkholderia mallei SAVP1
Measurement kind: Kd

QUERY: Look up Kd for this sequence: `RFNAIWFNH`
RESULT: ≥ 20 µM

----------
Target under test: HLA-A*11:01
Test description: IEDB peptide-MHC binding, purified MHC/direct/fluorescence; filed as Kd, often an IC50 or EC50 that approximates it; bounds were set here for any values at or beyond the usual limits of such assays
Run conditions: source organism: La Crosse virus
Measurement kind: Kd

QUERY: Item `YRKPSGGVF` has what recorded Kd?
RESULT: ≥ 20 µM

----------
Target under test: HLA-A*11:01
Test description: IEDB peptide-MHC binding, purified MHC/direct/fluorescence; filed as Kd, often an IC50 or EC50 that approximates it; bounds were set here for any values at or beyond the usual limits of such assays
Run conditions: source organism: Giardia intestinalis
pKd: −log10 of the molar value.
Measurement kind: pKd

QUERY: Reported pKd, sequence `LEKWNLGII` : ____
RESULT: ≤ 4.70

----------
Measured Kd by item
Target under test: HLA-A*68:01
Test description: IEDB peptide-MHC binding, purified MHC/competitive/radioactivity; filed as Kd, often an IC50 or EC50 that approximates it; bounds were set here for any values at or beyond the usual limits of such assays
Run conditions: source organism: Dengue virus 2 Jamaica/1409/1983
Please reply with the bare figure in nM and do not write the unit itself.

Below, 2 sequences whose answers are already recorded.
MSAAIKDNR	14.4
DIISRRDQR	36.1

Moving on to another sequence below.
QUERY: Any idea what Kd came out for `CVTQVLMMR` on HLA-A*68:01?
RESULT: 100

----------
Target under test: HLA-B*15:01
Test description: IEDB peptide-MHC binding, purified MHC/direct/fluorescence; filed as Kd, often an IC50 or EC50 that approximates it; bounds were set here for any values at or beyond the usual limits of such assays
Run conditions: source organism: Ebola virus - Mayinga, Zaire, 1976
Measurement kind: Kd

QUERY: Any idea what its Kd is? The sequence is `SRTPSGKRL`
RESULT: ≥ 20 µM

----------
Target under test: HLA-B*18:01
Test description: IEDB peptide-MHC binding, purified MHC/competitive/fluorescence; filed as Kd, often an IC50 or EC50 that approximates it; bounds were set here for any values at or beyond the usual limits of such assays
Run conditions: source organism: Four Corners hantavirus
Measurement kind: Kd

QUERY: What measured Kd goes with `PELGAFFAI` ?
RESULT: ≥ 20 µM
